Method Notes: Plasma concentration in rat at 100 mg/kg, po after 2 hrs
Type: ADME, organism-based
Parameter: concentration at 2 h
Put down the number, then write its unit next to it.

# concentration at 2 h (molecule: `CC(=O)O[C@H]1C(=O)[C@@]2(C)[C@H]([C@H](OC(=O)c3ccccc3)[C@]3(O)C[C@H](OC(=O)[C@H](O)[C@@H](NC(=O)c4ccccc4)c4ccccc4)C(C)=C1C3(C)C)[C@]1(OC(C)=O)CO[C@@H]1C[C@@H]2O` ) is 3100 nM

# concentration at 2 h (molecule: `COc1cccc2c1C(=O)c1c(O)c3c(c(O)c1C2=O)C[C@@](O)(C(=O)CO)C[C@@H]3O[C@H]1C[C@H](N)[C@H](O)[C@H](C)O1` ) is 1150 nM
